The reported measurements were obtained from PubChem BioAssay AID1259407.

- Test system: CCRIS mutagenicity, Ames/micronucleus/aberration tests
- TEST_NAME: CCRIS mutagenicity studies
- PROTOCOL_CONDITIONS: Test System: AMES SALMONELLA TYPHIMURIUM; Strain/Indicator: TA1535; Metabolic Activation: RAT, LIVER, S-9, AROCLOR 1254; Method: STANDARD PLATE
Calls of active or inactive are those of the source. The rule behind the calls is not given here.
// one of active, inactive, no free text

Ask: Which outcome was entered for the compound `O=[N+]([O-])c1ccc(N=Nc2ccc(N(CCO)CCO)cc2)c([N+](=O)[O-])c1` in this test?
Result: active

Ask: Which outcome was entered for the compound `O=C(c1ccc([N+](=O)[O-])cc1)n1ncc(Cl)c(Cl)c1=O` in this test?
Result: active

Ask: Which outcome was entered for the compound CC(=O)N(CC(O)CN(C(C)=O)c1c(I)c(C(=O)NCC(O)CO)c(I)c(C(=O)NCC(O)CO)c1I)c1c(I)c(C(=O)NCC(O)CO)c(I)c(C(=O)NCC(O)CO)c1I (stereo not given) in this test?
Result: inactive

Ask: Which outcome was entered for the compound `O=C1c2cccc(S(=O)(=O)O)c2C(=O)c2cccc([N+](=O)[O-])c21` in this test?
Result: inactive

Ask: Which outcome was entered for the compound `Cc1ccc(N=Nc2ccc(N(CCO)CCO)cc2)cc1` in this test?
Result: inactive

Ask: Which outcome was entered for the compound `[Cl][Sn][Cl]` in this test?
Result: inactive

Ask: Which outcome was entered for the compound `COc1ccccc1/C=C/C=O` in this test?
Result: inactive

Ask: Which outcome was entered for the compound `Nc1ccc(O)c2c1C(=O)c1ccccc1C2=O` in this test?
Result: inactive

Ask: Which outcome was entered for the compound `O=C(c1ccccc1)n1ncc(Cl)c(Cl)c1=O` in this test?
Result: inactive

Ask: Which outcome was entered for the compound `Clc1nc2ccccc2nc1Cl` in this test?
Result: inactive
